Tested on: P815, murine mastocytoma cell
Experiment: In vitro cytotoxicity (MTT) on P815
Type: cell-based
Conditions: Mus musculus, 24-hour cell culture
We begin with a simple list: items and their reported IC50.

Fill blank: measured IC50 of the compound CN1CCN(c2nc(Nc3ccc(CCNc4nc(NCCO)nc(Nc5cccc(N)c5)n4)cc3)nc(Nc3cccc(N)c3)n2)CC1 [Compound 13] is ____.
6.5 µM

So what's the measured IC50 for this one? CN(C)c1nc(NCCc2ccc(Nc3nc(Nc4cccc(N)c4)nc(N(C)C)n3)cc2)nc(Nc2cccc(N)c2)n1 [Compound 7]
20 µM

----------
Tested on: Hep-G2, human liver cell
Assay: In vitro cytotoxicity (MTT) on Hep-G2
Format: cell-based
Details: HepG2, 24-hour cell culture
Reported IC50 values are given for each entry in this list.

{"smiles_input": "Nc1ccc(CCNc2nc(Nc3ccc(CCNc4nc(NCCO)nc(Nc5cccc(N)c5)n4)cc3)nc(Nc3cccc(N)c3)n2)cc1", "test_system": "Hep-G2, human liver cell", "IC50": "> 40 µM"}
{"smiles_input": "Nc1ccc(CCNc2nc(NCCNc3nc(NCCc4ccc(N)cc4)nc(Nc4cccc(N)c4)n3)nc(Nc3cccc(N)c3)n2)cc1", "test_system": "Hep-G2, human liver cell", "IC50": "> 40 µM"}

Now for another entry.
Given Oc1ccc(CCNc2nc(NCCNc3nc(NCCc4ccc(O)cc4)nc(Nc4ccccc4)n3)nc(Nc3ccccc3)n2)cc1 , state its recorded IC50.
19 µM

----------
Listing of recorded pIC50 by entry.
Test system: PC-3, human prostate carcinoma cell
Assay: In vitro cytotoxicity (MTT) on PC-3
Type: cell-based
Conditions: 24-hour cell culture
Value format note: pIC50 is -log10 of concentration (mol/L); just state the number.

Solved entries:
{"compound": "Nc1cccc(Nc2nc(NCCNc3nc(Nc4cccc(N)c4)nc(Nc4cccc(O)c4)n3)nc(Nc3cccc(O)c3)n2)c1", "pIC50": 5.36}
{"compound": "CC(Nc1nc(Nc2cccc(N)c2)nc(Nc2cccc(N)c2)n1)c1cccc(N)c1 (stereo not shown)", "pIC50": 4.13}
{"compound": "CN(C)c1nc(NCCc2ccc(Nc3nc(Nc4cccc(N)c4)nc(N(C)C)n3)cc2)nc(Nc2cccc(N)c2)n1", "pIC50": 4.07}

Endpoint output: pIC50 of Nc1cccc(Nc2nc(NCCO)nc(Nc3cccc(Nc4nc(NCCO)nc(Nc5cccc(F)c5)n4)c3)n2)c1 . Value?
4.52

What does the data say about its pIC50? Entry: CN1CCN(c2nc(Nc3ccc(CCNc4nc(NCCO)nc(Nc5cccc(N)c5)n4)cc3)nc(Nc3cccc(N)c3)n2)CC1
4.96

Param item = Nc1cccc(Nc2nc(NCCO)nc(Nc3ccc(Nc4nc(NCCO)nc(Nc5cccc(F)c5)n4)cc3)n2)c1 ; retrieve measured pIC50.
5.09

----------
System: Hep-G2, human liver cell
Experiment: In vitro cytotoxicity (MTT) on Hep-G2
Format: cell-based
Details: HepG2, 72-hour cell culture
value_type: IC50 (µM)
Write it as a number; the unit µM goes unstated.

Consider the compound Oc1ccc(CCNc2nc(NCCNc3nc(NCCc4ccc(O)cc4)nc(Nc4ccccc4)n3)nc(Nc3ccccc3)n2)cc1 and give its measured IC50.
23

----------
Tested on: PC-3, human prostate carcinoma cell
Experiment: In vitro cytotoxicity (MTT) on PC-3
Format: cell-based
Conditions: 24-hour cell culture
Note to self: use Y only for IC50 readings below 10 µM; a reading exactly at 10 µM still gets N.

Sample answers from the record:
{"compound": "Nc1cccc(Nc2nc(NCCO)nc(NCCc3ccc(Nc4nc(NCCc5ccccc5N)nc(Nc5cccc(N)c5)n4)cc3)n2)c1 [Compound 17]", "category": "N"}
{"compound": "CN(C)c1nc(NCCc2ccc(Nc3nc(NCCO)nc(Nc4cccc(N)c4)n3)cc2)nc(Nc2cccc(N)c2)n1 [Compound 12]", "category": "N"}
{"compound": "Nc1ccc(CCNc2nc(NCCNc3nc(NCCc4ccc(N)cc4)nc(Nc4cccc(N)c4)n3)nc(Nc3cccc(N)c3)n2)cc1 [Compound 3]", "category": "N"}
{"compound": "CN(C)c1nc(Nc2ccc(CCNc3nc(NCCO)nc(Nc4cccc(N)c4)n3)cc2)nc(Nc2cccc(N)c2)n1 [Compound 16]", "category": "N"}
{"compound": "Oc1ccc(CCNc2nc(NCCNc3nc(NCCc4ccc(O)cc4)nc(Nc4ccccc4)n3)nc(Nc3ccccc3)n2)cc1 [Compound 1]", "category": "Y"}
{"compound": "Nc1cccc(Nc2nc(N)nc(Nc3cccc(Nc4nc(N)nc(Nc5cccc(N)c5)n4)c3)n2)c1 [Compound 5]", "category": "N"}
{"compound": "Nc1cccc(Nc2nc(NCCO)nc(Nc3ccc(Nc4nc(NCCO)nc(Nc5cccc(N)c5)n4)cc3)n2)c1 [Compound 4]", "category": "N"}
{"compound": "Nc1ccc(CCNc2nc(NCCCCO)nc(Nc3cccc(N)c3)n2)cc1 [Compound 8]", "category": "N"}

Then there is this compound:
Consider the compound Nc1cccc(Nc2nc(NCCO)nc(Nc3cccc(Nc4nc(NCCO)nc(Nc5cccc(N)c5)n4)c3)n2)c1 [Compound 6] . Is its IC50 strictly less than 10 µM?
N

----------
System: P815, murine mastocytoma cell
Assay: In vitro cytotoxicity (MTT) on P815
Type: cell-based
Conditions: Mus musculus, 72-hour cell culture
Measured IC50 accompanies every entry in the list below.
Give a bare numeral; the unit µM is implied.

Any idea what IC50 was measured for CN(C)c1nc(Nc2ccc(CCNc3nc(NCCO)nc(Nc4cccc(N)c4)n3)cc2)nc(Nc2cccc(N)c2)n1 ?
2.4

What measured IC50 goes with CN(C)c1nc(NCCc2ccc(Nc3nc(Nc4cccc(N)c4)nc(N(C)C)n3)cc2)nc(Nc2cccc(N)c2)n1 ?
1.3

Please look up its IC50: Nc1cccc(Nc2nc(NCCO)nc(Nc3cccc(Nc4nc(NCCO)nc(Nc5cccc(F)c5)n4)c3)n2)c1
7.8

Value lookup for IC50; key = Nc1cccc(Nc2nc(NCCO)nc(Nc3ccc(Nc4nc(NCCO)nc(Nc5cccc(N)c5)n4)cc3)n2)c1
32

----------
Test system: B16F10, murine melanoma cell
Experiment: In vitro cytotoxicity (MTT) on B16F10
Assay type: cell-based
Conditions: Mus musculus, B16-F10; 24-hour cell culture
Below, each of the compounds is paired with its reported pIC50 value.
Keep in mind that pIC50 stands for -log10 of concentration in molar terms.

{"compound": "Nc1cccc(Nc2nc(NCCNc3nc(Nc4cccc(N)c4)nc(Nc4cccc(O)c4)n3)nc(Nc3cccc(O)c3)n2)c1", "value_type": "pIC50", "measurement": 5.85}

Recorded pIC50 for Nc1ccc(CCNc2nc(NCCNc3nc(NCCc4ccc(N)cc4)nc(Nc4cccc(N)c4)n3)nc(Nc3cccc(N)c3)n2)cc1 , please?
5.40

Which value of pIC50 has been reported for CC(Nc1nc(Nc2cccc(N)c2)nc(Nc2cccc(N)c2)n1)c1cccc(N)c1 (stereo not shown) in the records?
4.21

What value of pIC50 has been recorded for this entry: CN(C)c1nc(Nc2ccc(CCNc3nc(NCCO)nc(Nc4cccc(N)c4)n3)cc2)nc(Nc2cccc(N)c2)n1
6.30

----------
Item-by-item account of IC50
System: P815, murine mastocytoma cell
Assay: In vitro cytotoxicity (MTT) on P815
Assay type: cell-based
Details: Mus musculus, 24-hour cell culture
Reply with just the number (in µM).

Below are worked cases with known answers.
{"smiles_input": "Nc1cccc(Nc2nc(NCCNc3nc(Nc4cccc(N)c4)nc(Nc4cccc(O)c4)n3)nc(Nc3cccc(O)c3)n2)c1", "test_system": "P815, murine mastocytoma cell", "IC50, µM": 21.2}
{"smiles_input": "Oc1ccc(CCNc2nc(NCCNc3nc(NCCc4ccc(O)cc4)nc(Nc4ccccc4)n3)nc(Nc3ccccc3)n2)cc1", "test_system": "P815, murine mastocytoma cell", "IC50, µM": 34}
{"smiles_input": "Nc1cccc(Nc2nc(NCCO)nc(Nc3cccc(Nc4nc(NCCO)nc(Nc5cccc(F)c5)n4)c3)n2)c1", "test_system": "P815, murine mastocytoma cell", "IC50, µM": 13.1}
{"smiles_input": "CN(C)c1nc(Nc2ccc(CCNc3nc(NCCO)nc(Nc4cccc(N)c4)n3)cc2)nc(Nc2cccc(N)c2)n1", "test_system": "P815, murine mastocytoma cell", "IC50, µM": 12.6}
{"smiles_input": "Nc1cccc(Nc2nc(NCCO)nc(Nc3ccc(Nc4nc(NCCO)nc(Nc5cccc(N)c5)n4)cc3)n2)c1", "test_system": "P815, murine mastocytoma cell", "IC50, µM": 86}
{"smiles_input": "Nc1cccc(Nc2nc(NCCO)nc(Nc3ccc(Nc4nc(NCCO)nc(Nc5cccc(F)c5)n4)cc3)n2)c1", "test_system": "P815, murine mastocytoma cell", "IC50, µM": 16.4}

Entry under review: CN(C)c1nc(NCCc2ccc(Nc3nc(NCCO)nc(Nc4cccc(N)c4)n3)cc2)nc(Nc2cccc(N)c2)n1 . Reported IC50?
13.5

# input compound: Nc1cccc(CCNc2nc(Nc3ccc(CCNc4nc(NCCO)nc(Nc5cccc(N)c5)n4)cc3)nc(Nc3cccc(N)c3)n2)c1 ; wanted: its IC50
13.4

Field request: IC50 | item: Nc1cccc(Nc2nc(NCCO)nc(NCCc3ccc(Nc4nc(NCCc5ccccc5N)nc(Nc5cccc(N)c5)n4)cc3)n2)c1
14.5
